# Assay text: Cmax in CD1 mouse at 1 mg/kg, po measured for 24 hrs by LC-MS/MS analysis
# Format: ADME, organism-based
# Protocol conditions: in vivo
Property name: Cmax (ng/mL)
Entry rule: numbers only, all in ng/mL.

Notebook: C[C@@H](c1cnn(C)c1)n1cc(C(F)(F)F)cc(-c2cccc([C@]3(c4nncn4C)C[C@@H](C)C3)c2)c1=O , Cmax read as 35

###

# Assay text: Clearance in rat hepatocytes assessed as measured per million cells at 0.1 to 1 uM measured for 120 mins by LC-MS/MS analysis
# Format: ADME, cell-based, Hepatocyte
# Protocol conditions: dose 0.1-1 µM
Property name: log10 of hepatocyte CLint at up to 1 µM (log10 of the value in µL/min/1e6 cells)
Scale: log10; quantity: hepatocyte CLint at up to 1 µM; unit before log: µL/min/1e6 cells

CC#CCn1cc(C(F)(F)F)cc(-c2cccc([C@]3(c4nncn4C)C[C@@H](C)C3)c2)c1=O | 1.32
C[C@H](c1cnn(C)c1)n1cc(C(F)(F)F)cc(-c2cccc([C@]3(c4nncn4C)C[C@@H](C)C3)c2)c1=O | 1.32

Notebook: Cn1cnc(Cn2cc(C(F)(F)F)cc(-c3cccc([C@]4(c5nncn5C)C[C@@H](C)C4)c3)c2=O)c1 , log10 of hepatocyte CLint at up to 1 µM read as 1.51

Notebook: Cn1cnnc1[C@]1(c2cccc(-c3cc(C(F)(F)F)c[nH]c3=O)c2)C[C@H](C)C1 , log10 of hepatocyte CLint at up to 1 µM read as 1.20

Notebook: C[C@@H](c1cnn(C)c1)n1cc(C(F)(F)F)cc(-c2cccc([C@]3(c4nncn4C)C[C@@H](C)C3)c2)c1=O , log10 of hepatocyte CLint at up to 1 µM read as 0.81

Notebook: CN1CCC(Cn2cc(C(F)(F)F)cc(-c3cccc([C@]4(c5nncn5C)C[C@@H](C)C4)c3)c2=O)CC1 , log10 of hepatocyte CLint at up to 1 µM read as 1.11

Notebook: C[C@@H](C#N)n1cc(C(F)(F)F)cc(-c2cccc([C@]3(c4nncn4C)C[C@@H](C)C3)c2)c1=O , log10 of hepatocyte CLint at up to 1 µM read as 1.08

###

# Assay text: Stability in human liver microsome assessed as intrinsic clearance
# Format: ADME
# Protocol conditions: liver microsomes, read-out: CLH
Consider the following molecules and their measured microsomal CLint readings.
Entry rule: numbers only, all in µL/min/mg.

Cn1cnnc1[C@]1(c2cccc(-c3cc(C(F)(F)F)ccc3O)c2)C[C@H](C)C1 | 21
Cn1cc(Cn2cc(C(F)(F)F)cc(-c3cccc([C@]4(c5nncn5C)C[C@@H](C)C4)c3)c2=O)cn1 | 200

Notebook: Cc1c[nH]c(=O)c(-c2cccc([C@]3(c4nncn4C)C[C@@H](C)C3)c2)c1 , microsomal CLint read as 3

Notebook: Cn1cnnc1[C@]1(c2cccc(-c3nc(C(F)(F)F)c[nH]c3=O)c2)C[C@H](C)C1 , microsomal CLint read as 15

Notebook: Cn1cnnc1[C@@H](c1cccc(-c2cc(C(F)(F)F)c[nH]c2=O)c1)C1CCC1 (racemic) , microsomal CLint read as 25

###

# System: E3 ubiquitin-protein ligase CBL-B (Homo sapiens, UniProt Q13191)
# Sequence (Q13191 whole entry, the tested form may be a part): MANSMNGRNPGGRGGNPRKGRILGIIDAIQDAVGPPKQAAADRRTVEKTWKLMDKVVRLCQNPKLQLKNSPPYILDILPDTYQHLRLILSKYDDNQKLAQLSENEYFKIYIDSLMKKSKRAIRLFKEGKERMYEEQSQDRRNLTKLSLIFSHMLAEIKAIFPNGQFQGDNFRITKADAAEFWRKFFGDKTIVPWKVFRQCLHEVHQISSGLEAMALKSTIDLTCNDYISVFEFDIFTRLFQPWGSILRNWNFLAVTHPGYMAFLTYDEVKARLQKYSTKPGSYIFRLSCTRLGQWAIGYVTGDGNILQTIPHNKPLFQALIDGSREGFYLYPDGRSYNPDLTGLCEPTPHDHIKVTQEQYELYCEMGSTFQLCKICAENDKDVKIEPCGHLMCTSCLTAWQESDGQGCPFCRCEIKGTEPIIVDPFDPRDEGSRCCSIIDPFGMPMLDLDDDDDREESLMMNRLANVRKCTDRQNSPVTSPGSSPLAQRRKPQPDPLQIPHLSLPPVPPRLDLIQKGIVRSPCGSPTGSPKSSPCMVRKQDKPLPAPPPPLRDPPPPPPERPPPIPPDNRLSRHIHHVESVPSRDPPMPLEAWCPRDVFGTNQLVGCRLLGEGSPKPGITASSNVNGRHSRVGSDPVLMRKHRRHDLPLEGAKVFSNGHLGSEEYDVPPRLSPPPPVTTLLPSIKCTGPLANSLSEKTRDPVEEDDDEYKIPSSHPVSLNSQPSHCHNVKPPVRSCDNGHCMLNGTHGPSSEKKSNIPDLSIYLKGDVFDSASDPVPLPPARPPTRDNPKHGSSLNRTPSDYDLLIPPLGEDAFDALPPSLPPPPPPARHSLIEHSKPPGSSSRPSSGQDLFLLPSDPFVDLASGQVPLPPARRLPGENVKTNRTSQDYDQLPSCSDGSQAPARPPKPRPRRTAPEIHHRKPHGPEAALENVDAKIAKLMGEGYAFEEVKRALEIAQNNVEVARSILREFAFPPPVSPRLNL
# Assay text: Inhibition of biotinylated recombinant Cbl-b (36 to 427 residues)(unknown origin) expressed in Escherichia coli BL21(DE3) Tuner cells using a FAM-labeled probe by TR-FRET assay
pIC50: −log10 of the molar value.
Use 7 as the dividing line for pIC50, with the line itself on the YES side and lower values as NO.

Before answering, review these 5 worked examples.
COc1c[nH]c(=O)c(-c2cccc([C@]3(c4nncn4C)C[C@@H](C)C3)c2)c1 | NO
Cn1cnnc1[C@]1(c2cccc(-c3nc(C(F)(F)F)c[nH]c3=O)c2)C[C@H](C)C1 | NO
Cn1cnc(Cn2cc(C(F)(F)F)cc(-c3cccc([C@]4(c5nncn5C)C[C@@H](C)C4)c3)c2=O)c1 | YES
Cn1cnnc1[C@]1(c2cccc(-c3cc(C4CC4)c[nH]c3=O)c2)C[C@H](C)C1 | NO
Cn1cnnc1C1(c2cccc(-c3cc(C(F)(F)F)c[nH]c3=O)c2)CCC1 | NO

Read the next record carefully.
IN: Hello, I need to know if CN1CC[C@H](Cn2cc(C(F)(F)F)cc(-c3cccc([C@]4(c5nncn5C)C[C@@H](C)C4)c3)c2=O)C1 has measured pIC50 not below 7. Thanks!
OUT: YES

###

# Assay text: Lipophilicity, logD of compound at pH 7.4
# Type: physicochemical
# Protocol conditions: buffer
Property name: logD
Give the figure by itself; no unit, no explanation.

Below: 2 compounds and their reported logD.
Cn1cnnc1C1(c2cccc(-c3cc(C(F)(F)F)c[nH]c3=O)c2)CCC1 | 2.1
Cn1cnnc1[C@]1(c2cccc(-c3cc(C(F)(F)F)c[nH]c3=O)c2)C[C@H](C)C1 | 3.58

Now let's try a different one.
Notebook: Cc1c[nH]c(=O)c(-c2cccc([C@]3(c4nncn4C)C[C@@H](C)C3)c2)c1 , logD read as 2.6

###

# Assay text: Oral bioavailability in Wistar Han rat at 1 mg/kg measured for 24 hrs by LC-MS/MS analysis
# Assay type: ADME, organism-based
# Protocol conditions: in vivo
Property name: bioavailability (%)
Entry rule: numbers only, all in %.

Notebook: C[C@@H](c1cnn(C)c1)n1cc(C(F)(F)F)cc(-c2cccc([C@]3(c4nncn4C)C[C@@H](C)C3)c2)c1=O , bioavailability read as 15

###

# Assay text: Volume of distribution at steady state in Wistar Han rat at 0.5 mg/kg, iv measured for 24 hrs by LC-MS/MS analysis
# Assay type: ADME, organism-based
# Protocol conditions: in vivo, read-out: Vdss
Property name: Vd (L/kg)
Entry rule: numbers only, all in L/kg.

Notebook: C[C@@H](c1cnn(C)c1)n1cc(C(F)(F)F)cc(-c2cccc([C@]3(c4nncn4C)C[C@@H](C)C3)c2)c1=O , Vd read as 1.6

###

# Assay text: Cmax in Wistar Han rat at 1 mg/kg, po measured for 24 hrs by LC-MS/MS analysis
# Assay type: ADME, organism-based
# Protocol conditions: in vivo
Property name: Cmax (ng/mL)
Entry rule: numbers only, all in ng/mL.

Notebook: C[C@@H](c1cnn(C)c1)n1cc(C(F)(F)F)cc(-c2cccc([C@]3(c4nncn4C)C[C@@H](C)C3)c2)c1=O , Cmax read as 21

###

Consider the following IC50 values measured on E3 ubiquitin-protein ligase CBL (Homo sapiens, UniProt P22681).
# output: numeric value plus its unit

Below: 3 compounds and their reported IC50.
CC#CCn1cc(C(F)(F)F)cc(-c2cccc([C@]3(c4nncn4C)C[C@@H](C)C3)c2)c1=O | 160 nM
Cn1cnnc1[C@]1(c2cccc(-c3nc(C(F)(F)F)c[nH]c3=O)c2)C[C@H](C)C1 | 6550 nM
Cn1cnnc1[C@@H](c1cccc(-c2cc(C(F)(F)F)c[nH]c2=O)c1)C1CCC1 (racemic) | 410 nM

Now let's try a different one.
Fill in: E3 ubiquitin-protein ligase CBL (Homo sapiens, UniProt P22681) IC50 for Cn1cnnc1[C@]1(c2cccc(-n3cc(C(F)(F)F)ccc3=O)c2)C[C@H](C)C1 = 10300 nM

###

# Assay text: Induction of IL-2 production in human T cells
# Format: functional, cell-based, T-cell
# Protocol conditions: Homo sapiens, T-cell
Consider the following compounds and their measured pEC50 readings.
Value format note: pEC50 is -log10 of concentration (mol/L); just state the number.

Below: 2 compounds and their reported pEC50.
CN1CCC(Cn2cc(C(F)(F)F)cc(-c3cccc([C@]4(c5nncn5C)C[C@@H](C)C4)c3)c2=O)CC1 | 4.78
Cc1nnc(Cn2cc(C(F)(F)F)cc(-c3cccc([C@]4(c5nncn5C)C[C@@H](C)C4)c3)c2=O)o1 | 5.54

Now let's try a different one.
Notebook: Cn1cc(Cn2cc(C(F)(F)F)cc(-c3cccc([C@]4(c5nncn5C)C[C@@H](C)C4)c3)c2=O)cn1 , pEC50 read as 5.52

###

# Assay text: Clearance in CD1 mouse at 0.5 mg/kg, iv measured for 24 hrs by LC-MS/MS analysis
# Type: ADME, organism-based
# Protocol conditions: in vivo
Property name: clearance (mL/min/kg)
Entry rule: numbers only, all in mL/min/kg.

Notebook: C[C@@H](c1cnn(C)c1)n1cc(C(F)(F)F)cc(-c2cccc([C@]3(c4nncn4C)C[C@@H](C)C3)c2)c1=O , clearance read as 100

###

# Assay text: Half life in Wistar Han rat at 0.5 mg/kg, iv measured for 24 hrs by LC-MS/MS analysis
# Format: ADME, organism-based
# Protocol conditions: in vivo
Property name: half-life (min)
Entry rule: numbers only, all in min.

Notebook: C[C@@H](c1cnn(C)c1)n1cc(C(F)(F)F)cc(-c2cccc([C@]3(c4nncn4C)C[C@@H](C)C3)c2)c1=O , half-life read as 27
